System: HO-8910
Experiment: Inhibitory activity for high metastasis type ovarian cancer cell line (MTT or CCK-8)
Assay type: cell-based
Conditions: HO-8910, 72 hours; read-out: IC50
pIC50: −log10 of the molar value.
assay_metric: pIC50

- molecule: "S=C=NCCc1ccccc1 [PEITC, phenylethylisothiocyanate, reference compound]"
  assay_metric: "pIC50"
  measured: 4.81
- molecule: "[O-][S+](/C=C/CCN=C=S)c1nnnn1-c1ccccc1 (stereo not shown)"
  assay_metric: "pIC50"
  measured: 6.52
- molecule: "C[S+]([O-])CCCCN=C=S (stereo not shown) [SFN, sulforaphane, reference compound]"
  assay_metric: "pIC50"
  measured: 4.67
- molecule: "[O-][S+](/C=C/CCN=C=S)c1ccc(Oc2ccccc2)cc1 (stereo not shown)"
  assay_metric: "pIC50"
  measured: 6.10

----------
Molecular target: XPO1 protein (Homo sapiens)
Construct: Sixteen hours later, NES-GFP plasmid was transfected with liposome; endogenous in cells
Assay: Inhibitory activity for XPO1 protein (NES-GFP nuclear export, laser confocal microscope)
Assay type: cell-based
Conditions: NES-GFP nuclear export, cells treated for 2 hours
assay_metric: Activity (μM): inhibitory activity for XPO1 protein (full inhibitory concentration)

- molecule: "[O-][S+](/C=C/CCN=C=S)c1ccc(Br)cc1 (stereo not drawn) [Compound I-02]"
  measured: "1 to 5 µM"
- molecule: "[O-][S+](/C=C/CCN=C=S)c1cccnc1 (stereo not drawn) [Compound I-15]"
  measured: "1 to 5 µM"
- molecule: "[O-][S+](/C=C/CCN=C=S)c1ccc(-c2ccccc2)cc1 (stereo not drawn) [Compound I-26]"
  measured: "0.5 to 1 µM"
- molecule: "[O-][S+](/C=C/CCN=C=S)c1ccc2ncncc2c1 (stereo not drawn) [Compound I-18]"
  measured: "1 to 5 µM"
- molecule: "[O-][S+](/C=C/CCN=C=S)c1ccc(Cl)c(C(F)(F)F)c1 (stereo not drawn) [Compound I-03]"
  measured: "0.5 to 1 µM"
- molecule: "[O-][S+](/C=C/CCN=C=S)c1ccc2cc3ccccc3cc2c1 (stereo not drawn) [Compound I-12]"
  measured: "1 to 5 µM"
- molecule: "N#Cc1cc([S+]([O-])/C=C/CCN=C=S)cc(C(F)(F)F)c1 (stereo not drawn) [Compound I-08]"
  measured: "0.5 to 1 µM"
- molecule: "S=C=NCCc1ccccc1 [PEITC, phenylethylisothiocyanate, reference compound]"
  measured: "30 µM"
- molecule: "[O-][S+](/C=C/CCN=C=S)c1nc2cc(C(F)(F)F)ccc2s1 (stereo not drawn) [Compound I-21]"
  measured: "1 to 5 µM"

----------
Tested on: SK-OV3 (high metastasis type ovarian cancer cell line)
Assay: Ovarian cancer intraperitoneal metastasis animal model
Format: in vivo, nudemice (BALB/c-nu/nu)
Details: Mus musculus, SK-OV-3, ip, 504 h; 80 mg/kg intraperitoneal injection once a day for 3 weeks; read-out: T/C (%)
Label false if response vs control in vivo at 80 mg/kg falls below 40%; label true in every other case.

- compound: "C[S+]([O-])CCCCN=C=S (centres unmarked) [SFN, sulforaphane, reference compound]"
  system_name: "SK-OV3 (high metastasis type ovarian cancer cell line)"
  category_label: "true"
- compound: "N#Cc1cc([S+]([O-])/C=C/CCN=C=S)cc(C(F)(F)F)c1 (centres unmarked)"
  system_name: "SK-OV3 (high metastasis type ovarian cancer cell line)"
  category_label: "false"
- compound: "[O-][S+](/C=C/CCN=C=S)c1ccc2ncccc2c1 (centres unmarked)"
  system_name: "SK-OV3 (high metastasis type ovarian cancer cell line)"
  category_label: "false"
- compound: "CS/C=C/CCN=C=S [Compound F-06, reference compound]"
  system_name: "SK-OV3 (high metastasis type ovarian cancer cell line)"
  category_label: "true"
- compound: "S=C=NCCc1ccccc1 [PEITC, phenylethylisothiocyanate, reference compound]"
  system_name: "SK-OV3 (high metastasis type ovarian cancer cell line)"
  category_label: "true"
- compound: "CCC[S+]([O-])/C=C/CCN=C=S (centres unmarked) [Compound F-01, reference compound]"
  system_name: "SK-OV3 (high metastasis type ovarian cancer cell line)"
  category_label: "false"
- compound: "[O-][S+](/C=C/CCN=C=S)c1ccc(Oc2ccccc2)cc1 (centres unmarked)"
  system_name: "SK-OV3 (high metastasis type ovarian cancer cell line)"
  category_label: "false"
- compound: "[O-][S+](/C=C/CCN=C=S)C1CC1 (centres unmarked) [Compound F-03, reference compound]"
  system_name: "SK-OV3 (high metastasis type ovarian cancer cell line)"
  category_label: "false"

----------
Tested on: HMLE-Snail cell line
Test: Formation of HMLE-Snail cell line spheroids
Type: cell-based
Conditions: 10 μg/ml, treated for 24 hours; control = 100; read-out: Colony (%): cell colony number of drug-treated group/cell colony number of control group × 100%

- compound: "COc1cc([S+]([O-])/C=C/CCN=C=S)cc(C(F)(F)F)c1 (centres unmarked) [Compound I-05]"
  activity at 10 µg/mL: "20 to 25%"
- compound: "[O-][S+](/C=C/CCN=C=S)c1ccc2c(c1)CCCC2 (centres unmarked) [Compound I-10]"
  activity at 10 µg/mL: "30 to 35%"
- compound: "[O-][S+](/C=C/CCN=C=S)c1ccc(Oc2ccccc2)cc1 (centres unmarked) [Compound I-27]"
  activity at 10 µg/mL: "25 to 30%"
- compound: "[O-][S+](/C=C/CCN=C=S)c1ccc2ncccc2c1 (centres unmarked) [Compound I-17]"
  activity at 10 µg/mL: "30 to 35%"
- compound: "CS/C=C/CCN=C=S [Compound F-06, reference compound]"
  activity at 10 µg/mL: "70 to 75%"

----------
Test system: Raji
Assay: Inhibitory activity for high metastasis type lymphoma cell line (MTT or CCK-8)
Assay type: cell-based
Details: Homo sapiens, 72 h
pIC50: −log10 of the molar value.
assay_metric: pIC50

- compound: "[O-][S+](/C=C/CCN=C=S)c1cc(C(F)(F)F)cc(C(F)(F)F)c1 (stereo not shown)"
  measured: 7.22

----------
Tested on: IL-6
Assay: Serum IL-6 level of IBD animal model (ELISA)
Assay type: in vivo, SD rats
Settings: 80 mg/kg, three days after making the TNBS model, Animal-1
Recorded measurements of Serum IL-6 level, Animal-1, one per entry
assay_metric: Serum IL-6 level, Animal-1

- compound: "CCC[S+]([O-])/C=C/CCN=C=S (stereo not drawn) [Compound F-01, reference compound]"
  measured: "1.8 ng/mL"
- compound: "[O-][S+](/C=C/CCN=C=S)c1ccccc1 (stereo not drawn)"
  measured: "1.5 ng/mL"
- compound: "C[S+]([O-])CCCCN=C=S (stereo not drawn) [SFN, sulforaphane, reference compound]"
  measured: "2.5 ng/mL"
- compound: "S=C=NCCc1ccccc1 [PEITC, phenylethylisothiocyanate, reference compound]"
  measured: "2.2 ng/mL"
- compound: "[O-][S+](/C=C/CCN=C=S)C1CC1 (stereo not drawn) [Compound F-03, reference compound]"
  measured: "1.7 ng/mL"
- compound: "Nc1ccc(O)c(C(=O)O)c1 [Compound 5-ASA, 5-aminosalicylic acid, reference compound]"
  measured: "2.7 ng/mL"
- compound: "[O-][S+](/C=C/CCN=C=S)c1ccc(Cl)c(C(F)(F)F)c1 (stereo not drawn)"
  measured: "0.9 ng/mL"
- compound: "[O-][S+](/C=C/CCN=C=S)c1nnnn1-c1ccccc1 (stereo not drawn)"
  measured: "0.6 ng/mL"
- compound: "CS/C=C/CCN=C=S [Compound F-06, reference compound]"
  measured: "2.8 ng/mL"
- compound: "COc1cc([S+]([O-])/C=C/CCN=C=S)cc(OC)c1OC (stereo not drawn)"
  measured: "0.7 ng/mL"
- compound: "[O-][S+](/C=C/CCN=C=S)c1nc2ccccc2s1 (stereo not drawn)"
  measured: "1.0 ng/mL"
- compound: "N#Cc1cc([S+]([O-])/C=C/CCN=C=S)cc(C(F)(F)F)c1 (stereo not drawn)"
  measured: "0.8 ng/mL"

----------
Recorded measurements of Activity (μM): inhibitory activity for XPO1 protein (full inhibitory concentration), one per entry
Target: XPO1 protein (Homo sapiens, UniProt O14980)
Construct: Sixteen hours later, NES-GFP plasmid was transfected with liposome; endogenous in cells
Sequence (O14980 whole entry, species assumed): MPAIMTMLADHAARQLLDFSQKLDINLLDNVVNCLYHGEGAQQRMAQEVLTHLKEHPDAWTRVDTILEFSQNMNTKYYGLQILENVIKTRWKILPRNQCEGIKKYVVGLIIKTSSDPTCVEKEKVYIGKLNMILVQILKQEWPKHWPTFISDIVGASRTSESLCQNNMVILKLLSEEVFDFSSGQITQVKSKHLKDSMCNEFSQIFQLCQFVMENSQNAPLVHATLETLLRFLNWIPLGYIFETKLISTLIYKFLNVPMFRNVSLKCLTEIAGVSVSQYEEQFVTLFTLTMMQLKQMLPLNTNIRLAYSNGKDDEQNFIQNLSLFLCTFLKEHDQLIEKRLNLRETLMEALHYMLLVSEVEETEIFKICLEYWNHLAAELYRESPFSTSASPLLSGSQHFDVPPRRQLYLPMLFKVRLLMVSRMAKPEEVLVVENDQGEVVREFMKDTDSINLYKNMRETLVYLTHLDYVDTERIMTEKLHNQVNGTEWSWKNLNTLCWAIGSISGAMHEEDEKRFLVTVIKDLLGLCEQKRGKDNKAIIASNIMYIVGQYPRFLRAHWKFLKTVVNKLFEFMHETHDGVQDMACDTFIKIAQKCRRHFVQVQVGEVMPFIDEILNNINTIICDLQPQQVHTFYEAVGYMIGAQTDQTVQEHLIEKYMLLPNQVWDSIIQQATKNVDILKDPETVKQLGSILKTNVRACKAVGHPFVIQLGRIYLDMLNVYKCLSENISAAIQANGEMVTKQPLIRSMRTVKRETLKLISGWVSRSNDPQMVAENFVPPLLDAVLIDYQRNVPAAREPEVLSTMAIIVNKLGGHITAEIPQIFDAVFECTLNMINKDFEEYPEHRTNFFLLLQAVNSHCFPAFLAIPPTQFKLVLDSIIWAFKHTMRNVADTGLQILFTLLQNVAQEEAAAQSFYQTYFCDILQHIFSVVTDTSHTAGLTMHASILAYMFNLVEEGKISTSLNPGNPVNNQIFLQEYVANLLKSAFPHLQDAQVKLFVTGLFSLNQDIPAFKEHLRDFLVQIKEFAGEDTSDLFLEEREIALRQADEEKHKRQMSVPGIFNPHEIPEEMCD
Assay: Inhibitory activity for XPO1 protein (NES-GFP nuclear export, laser confocal microscope)
Format: cell-based
Conditions: NES-GFP nuclear export, cells treated for 2 hours
assay_metric: Activity (μM): inhibitory activity for XPO1 protein (full inhibitory concentration)

- molecule: "[O-][S+](/C=C/CCN=C=S)c1ccc2c(c1)CCCC2 (stereo not shown)"
  measured: "1 to 5 µM"
- molecule: "[O-][S+](/C=C/CCN=C=S)c1nc2ccc(C(F)(F)F)cc2[nH]1 (stereo not shown)"
  measured: "1 to 5 µM"
- molecule: "CS/C=C/CCN=C=S [Compound F-06, reference compound]"
  measured: "15 to 20 µM"
- molecule: "COc1ccc(Sc2ccc([S+]([O-])/C=C/CCN=C=S)cc2)cc1 (stereo not shown)"
  measured: "0.5 to 1 µM"
- molecule: "[O-][S+](/C=C/CCN=C=S)c1ccc(Oc2ccccc2)cc1 (stereo not shown)"
  measured: "0.5 to 1 µM"
- molecule: "C[S+]([O-])CCCCN=C=S (stereo not shown) [SFN, sulforaphane, reference compound]"
  measured: "35 µM"
- molecule: "[O-][S+](/C=C/CCN=C=S)c1ccc2c(c1)Cc1ccccc1-2 (stereo not shown)"
  measured: "1 to 5 µM"
- molecule: "CCC[S+]([O-])/C=C/CCN=C=S (stereo not shown) [Compound F-01, reference compound]"
  measured: "10 to 15 µM"
- molecule: "[O-][S+](/C=C/CCN=C=S)c1ccc2ccccc2c1 (stereo not shown)"
  measured: "1 to 5 µM"
- molecule: "[O-][S+](/C=C/CCN=C=S)C1CC1 (stereo not shown) [Compound F-03, reference compound]"
  measured: "5 to 10 µM"
- molecule: "[O-][S+](/C=C/CCN=C=S)c1ccc(N2CCOCC2)cc1 (stereo not shown)"
  measured: "1 to 5 µM"
- molecule: "[O-][S+](/C=C/CCN=C=S)c1ccc2cccc3c2c1CC=C3 (stereo not shown)"
  measured: "1 to 5 µM"
- molecule: "COc1ccc2nc([S+]([O-])/C=C/CCN=C=S)[nH]c2c1 (stereo not shown)"
  measured: "1 to 5 µM"
- molecule: "[O-][S+](/C=C/CCN=C=S)c1cncc(C(F)(F)F)c1 (stereo not shown)"
  measured: "0.5 to 1 µM"
- molecule: "C[S+]([O-])/C=C/CCN=C=S (stereo not shown) [SFE, sulforaphene, reference compound]"
  measured: "10 to 15 µM"
- molecule: "O=c1ccc2cc([S+]([O-])/C=C/CCN=C=S)ccc2o1 (stereo not shown)"
  measured: "1 to 5 µM"
- molecule: "[O-][S+](/C=C/CCN=C=S)c1ccccc1 (stereo not shown)"
  measured: "1 to 5 µM"
- molecule: "[O-][S+](/C=C/CCN=C=S)c1nc2ccccc2[nH]1 (stereo not shown)"
  measured: "1 to 5 µM"
- molecule: "COc1cc([S+]([O-])/C=C/CCN=C=S)cc(C(F)(F)F)c1 (stereo not shown)"
  measured: "0.5 to 1 µM"
